ASSAYED TARGET: PI3Kα (Homo sapiens, UniProt P42336)
Sequence (P42336 whole entry, species assumed): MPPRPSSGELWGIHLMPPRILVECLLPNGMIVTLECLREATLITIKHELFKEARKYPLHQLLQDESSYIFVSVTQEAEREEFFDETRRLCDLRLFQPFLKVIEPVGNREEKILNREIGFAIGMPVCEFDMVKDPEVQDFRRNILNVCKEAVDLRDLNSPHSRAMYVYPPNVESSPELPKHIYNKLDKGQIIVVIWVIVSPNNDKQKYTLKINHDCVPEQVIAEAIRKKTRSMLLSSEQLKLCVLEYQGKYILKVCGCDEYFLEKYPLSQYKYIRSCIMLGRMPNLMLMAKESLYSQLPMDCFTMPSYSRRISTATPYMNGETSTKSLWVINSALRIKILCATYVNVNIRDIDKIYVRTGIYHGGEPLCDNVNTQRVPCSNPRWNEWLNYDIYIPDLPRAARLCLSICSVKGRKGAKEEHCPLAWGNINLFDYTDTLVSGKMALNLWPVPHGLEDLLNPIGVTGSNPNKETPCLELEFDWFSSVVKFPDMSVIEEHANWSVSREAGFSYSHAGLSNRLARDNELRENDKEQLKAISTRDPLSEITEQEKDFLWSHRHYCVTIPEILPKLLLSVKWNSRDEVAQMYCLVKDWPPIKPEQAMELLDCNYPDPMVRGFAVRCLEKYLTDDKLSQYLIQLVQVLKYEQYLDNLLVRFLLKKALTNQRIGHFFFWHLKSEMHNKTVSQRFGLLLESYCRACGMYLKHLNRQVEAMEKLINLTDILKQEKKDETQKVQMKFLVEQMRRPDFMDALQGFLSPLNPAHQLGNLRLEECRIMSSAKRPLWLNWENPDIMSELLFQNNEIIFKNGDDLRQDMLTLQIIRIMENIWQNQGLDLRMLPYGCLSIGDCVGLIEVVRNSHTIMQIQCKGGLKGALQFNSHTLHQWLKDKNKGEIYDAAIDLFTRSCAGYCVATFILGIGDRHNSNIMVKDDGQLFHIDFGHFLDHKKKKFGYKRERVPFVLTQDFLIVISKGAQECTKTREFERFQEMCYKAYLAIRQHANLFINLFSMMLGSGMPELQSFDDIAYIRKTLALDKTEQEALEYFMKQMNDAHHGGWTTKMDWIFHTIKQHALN
Sequence (P27986 whole entry partner, species assumed): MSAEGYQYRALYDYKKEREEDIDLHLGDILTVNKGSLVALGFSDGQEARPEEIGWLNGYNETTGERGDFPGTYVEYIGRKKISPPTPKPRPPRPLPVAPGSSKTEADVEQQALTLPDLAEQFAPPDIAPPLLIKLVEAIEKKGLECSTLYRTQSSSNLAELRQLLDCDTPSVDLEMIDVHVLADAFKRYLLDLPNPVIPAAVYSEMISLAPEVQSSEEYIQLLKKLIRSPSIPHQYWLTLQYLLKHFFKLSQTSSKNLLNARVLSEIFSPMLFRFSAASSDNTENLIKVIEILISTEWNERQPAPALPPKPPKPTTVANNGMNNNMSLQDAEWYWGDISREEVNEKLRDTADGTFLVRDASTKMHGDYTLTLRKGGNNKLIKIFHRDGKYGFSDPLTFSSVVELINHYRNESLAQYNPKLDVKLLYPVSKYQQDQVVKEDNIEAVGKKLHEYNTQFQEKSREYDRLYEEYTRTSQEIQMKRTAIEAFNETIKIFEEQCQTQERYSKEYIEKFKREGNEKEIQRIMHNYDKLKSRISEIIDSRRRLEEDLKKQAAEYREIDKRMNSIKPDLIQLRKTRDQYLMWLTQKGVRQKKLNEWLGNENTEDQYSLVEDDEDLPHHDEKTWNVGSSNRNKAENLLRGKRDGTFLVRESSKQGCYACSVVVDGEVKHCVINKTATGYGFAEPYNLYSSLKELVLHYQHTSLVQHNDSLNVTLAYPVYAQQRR
Each record is given class 1 if its reported IC50 is strictly below 50 nM. Records at or above 50 nM are given class 0.

See these solved cases before continuing.
QUERY: For `Cn1cc(/C=C2\Oc3cc(O)cc(O)c3C2=O)c2c(-c3cccnc3)ccnc21` , is the recorded IC50 below the cut-off of 50 nM?
RESULT: class 1

QUERY: For `Cn1cc(/C=C2\Oc3cccc(O)c3C2=O)c2c(-c3ccc(N4CCCC4)cc3)ccnc21` , is the recorded IC50 below the cut-off of 50 nM?
RESULT: class 0

QUERY: For `Cn1cc(/C=C2\Oc3ccc(NC(=O)Nc4cccnc4)cc3C2=O)c2c(N3C4CCC3COC4)ccnc21` , is the recorded IC50 below the cut-off of 50 nM?
RESULT: class 0

QUERY: For `Cn1cc(/C=C2\Oc3cc(O)cc(O)c3C2=O)c2c(C3=CCNCC3)ccnc21` , is the recorded IC50 below the cut-off of 50 nM?
RESULT: class 1

QUERY: For CN(C)C1CCN(c2ccnc3c2c(/C=C2\Oc4cccc(O)c4C2=O)cn3C)C1 (stereo not shown) , is the recorded IC50 below the cut-off of 50 nM?
RESULT: class 0

QUERY: For `Cn1cc(/C=C2\Oc3cc(O)cc(O)c3C2=O)c2c(-c3ccc(N)cc3)ccnc21` , is the recorded IC50 below the cut-off of 50 nM?
RESULT: class 1

QUERY: For `CN(C)C(=O)Nc1ccc2c(c1)C(=O)/C(=C/c1cn(C)c3nccc(-c4ccccc4)c13)O2` , is the recorded IC50 below the cut-off of 50 nM?
RESULT: class 0

QUERY: For `Cn1cc(/C=C2\Oc3cccc(O)c3C2=O)c2c(N3CCOCC3)ccnc21` , is the recorded IC50 below the cut-off of 50 nM?
RESULT: class 0

QUERY: For `Cn1cc(/C=C2\Oc3cccc(O)c3C2=O)c2c(-c3ccc(S(=O)(=O)N4CCOCC4)cc3)ccnc21` , is the recorded IC50 below the cut-off of 50 nM?
RESULT: class 1

QUERY: For `CN1CCN(c2ccnc3c2c(/C=C2\Oc4cc(O)cc(O)c4C2=O)cn3C)CC1` , is the recorded IC50 below the cut-off of 50 nM?
RESULT: class 1

***
QUERY: For `CN(C)C(=O)C1CCN(c2ccnc3c2c(/C=C2\Oc4ccc(NC(=O)N5CCOCC5)cc4C2=O)cn3C)CC1` , is the recorded IC50 below the cut-off of 50 nM?
RESULT: class 0

QUERY: For `Cn1cc(/C=C2\Oc3ccc(NC(=O)Nc4ccncc4)cc3C2=O)c2c(N3CC4CCC(C3)O4)ccnc21` , is the recorded IC50 below the cut-off of 50 nM?
RESULT: class 0

====

ASSAYED TARGET: PI3Kα (Homo sapiens)
pIC50: −log10 of the molar value.
Answer not fulfilled if pIC50 is under 7, and fulfilled if it is 7 or more.

QUERY: Does pIC50 meet or surpass 7 for `CN1CCN(c2ccc(NC(=O)Nc3ccc4c(c3)C(=O)/C(=C/c3cn(C)c5nccc(N6CCC(C(=O)N(C)C)CC6)c35)O4)cc2)CC1` ?
RESULT: not fulfilled

QUERY: Does pIC50 meet or surpass 7 for `Cn1cc(/C=C2\Oc3cccc(O)c3C2=O)c2c(-c3cccc(S(N)(=O)=O)c3)ccnc21` ?
RESULT: fulfilled

QUERY: Does pIC50 meet or surpass 7 for `Cn1cc(/C=C2\Oc3cc(O)cc(O)c3C2=O)c2c(-c3ccc(CO)cc3)ccnc21` ?
RESULT: fulfilled

QUERY: Does pIC50 meet or surpass 7 for `CN(C)C(=O)c1ccc(-c2ccnc3c2c(/C=C2\Oc4cccc(O)c4C2=O)cn3C)cc1` ?
RESULT: fulfilled

***
QUERY: Does pIC50 meet or surpass 7 for `Cn1cc(C=C2Oc3ccc(NC(=O)Nc4cccnc4)cc3C2=O)c2c(N3CCC(C(=O)N[C@H]4CCNC4)CC3)ccnc21` ?
RESULT: not fulfilled

QUERY: Does pIC50 meet or surpass 7 for `Cn1cc(/C=C2\Oc3ccc(NC(=O)Nc4cccnc4)cc3C2=O)c2c(N3CC4CNCC(C3)O4)ccnc21` ?
RESULT: not fulfilled

QUERY: Does pIC50 meet or surpass 7 for `Cn1cc(/C=C2\Oc3cccc(O)c3C2=O)c2c(-c3ccc(Oc4ccccc4)cc3)ccnc21` ?
RESULT: not fulfilled

QUERY: Does pIC50 meet or surpass 7 for `CN(C(=O)C1CCN(c2ccnc3c2c(C=C2Oc4ccc(NC(=O)Nc5cccnc5)cc4C2=O)cn3C)CC1)C1CCOCC1` ?
RESULT: not fulfilled

QUERY: Does pIC50 meet or surpass 7 for `Cn1cc(/C=C2\Oc3ccc(NC(=O)Nc4cccnc4)cc3C2=O)c2c(N3CCC(C(=O)NCc4ccncc4)CC3)ccnc21` ?
RESULT: not fulfilled

QUERY: Does pIC50 meet or surpass 7 for `Cn1cc(/C=C2\Oc3cc(O)cc(O)c3C2=O)c2c(-c3ccc(N4CCOCC4)cc3)ccnc21` ?
RESULT: fulfilled

QUERY: Does pIC50 meet or surpass 7 for `CN(C(=O)C1CCN(c2ccnc3c2c(/C=C2\Oc4ccc(NC(=O)Nc5cccnc5)cc4C2=O)cn3C)CC1)C1CCCC1` ?
RESULT: not fulfilled

====

Let's go through some recorded pIC50 values for PI3Kγ (Homo sapiens) together.
In simple prose, pIC50 is minus the logarithm base ten of a concentration in moles per litre.

Tested on PI3Kγ (Homo sapiens), the item CCNC(=O)Nc1ccc2c(c1)C(=O)/C(=C/c1cn(C)c3nccc(N4CC5CCC(C4)O5)c13)O2 [Compound 61] showed pIC50 equal to 6.18

Tested on PI3Kγ (Homo sapiens), the item CCN(CCO)C(=O)c1ccc(-c2ccnc3c2c(/C=C2\Oc4cccc(O)c4C2=O)cn3C)cc1 [Compound 243] showed pIC50 equal to 6.66

Tested on PI3Kγ (Homo sapiens), the item Cn1cc(/C=C2\Oc3cc(O)cc(O)c3C2=O)c2c(-c3ccc(C(=O)N4CCCC4)cc3)ccnc21 [Compound 92] showed pIC50 equal to 7.27

Tested on PI3Kγ (Homo sapiens), the item COCCN(C)C(=O)c1ccc(-c2ccnc3c2c(/C=C2\Oc4cccc(O)c4C2=O)cn3C)cc1 [Compound 175] showed pIC50 equal to 6.82

***
Tested on PI3Kγ (Homo sapiens), the item Cn1cc(/C=C2\Oc3cc(O)ccc3C2=O)c2c(-c3ccccc3)ccnc21 [Compound 30] showed pIC50 equal to 5.62

Tested on PI3Kγ (Homo sapiens), the item Cn1cc(/C=C2\Oc3cccc(O)c3C2=O)c2c(-c3cccc(S(C)(=O)=O)c3)ccnc21 [Compound 75] showed pIC50 equal to 6.50

====

Let's go through some recorded IC50 values for PI3Kγ (Homo sapiens, UniProt P48736) together.
All answers are understood in nM, so give the number only.

Worked cases, IC50 given:
IC50 measured on `COc1ccc(-c2ccnc3c2c(/C=C2\Oc4cc(O)cc(O)c4C2=O)cn3C)cc1S(=O)(=O)N1CCCC1` = 50

IC50 measured on `CN(C)CCOc1cccc2c1C(=O)/C(=C/c1cn(C)c3nccc(-c4ccccc4)c13)O2` = 4150

IC50 measured on `CNC(=O)c1ccc(-c2ccnc3c2c(/C=C2\Oc4cccc(O)c4C2=O)cn3C)cc1` = 83

IC50 measured on `CN1CCN(c2ccc(-c3ccnc4c3c(/C=C3\Oc5cc(O)cc(O)c5C3=O)cn4C)cc2)CC1` = 581

***
IC50 measured on Cn1cc(/C=C2\Oc3ccc(NC(=O)Nc4cccnc4)cc3C2=O)c2c(N3CCC(C(=O)N4CC5CC4CN5)CC3)ccnc21 (centres unmarked) = 378

IC50 measured on CN1CC2CC1CN2C(=O)C1CCN(c2ccnc3c2c(/C=C2\Oc4ccc(NC(=O)Nc5cccnc5)cc4C2=O)cn3C)CC1 (centres unmarked) = 2410

IC50 measured on CN1CC2CC1CN2c1ccnc2c1c(/C=C1\Oc3cccc(O)c3C1=O)cn2C (centres unmarked) = 148

IC50 measured on `CN1CCOc2cc(-c3ccnc4c3c(/C=C3\Oc5cccc(O)c5C3=O)cn4C)ccc21` = 8640

====

ASSAYED TARGET: PI3Kα (Homo sapiens, UniProt P42336)
Each record is given label 1 if its reported IC50 is strictly below 600 nM. Records at or above 600 nM are given label 0.

See these solved cases before continuing.
QUERY: For CC1CC(C)CN(c2ccnc3c2c(/C=C2\Oc4cccc(O)c4C2=O)cn3C)C1 (stereo not drawn) , is the recorded IC50 below the cut-off of 600 nM?
RESULT: label 0

QUERY: For `Cn1cc(/C=C2\Oc3ccc(NC(=O)Nc4cccnc4)cc3C2=O)c2c(C3=CCOCC3)ccnc21` , is the recorded IC50 below the cut-off of 600 nM?
RESULT: label 0

QUERY: For `Cn1cc(/C=C2\Oc3cc(O)cc(O)c3C2=O)c2c(-c3ccc(O)cc3)ccnc21` , is the recorded IC50 below the cut-off of 600 nM?
RESULT: label 1

QUERY: For `COc1ccc(-c2ccnc3c2c(/C=C2\Oc4cccc(O)c4C2=O)cn3C)cc1S(=O)(=O)N1CCCC1` , is the recorded IC50 below the cut-off of 600 nM?
RESULT: label 1

QUERY: For `Cc1cc(CN(C)C(=O)C2CCN(c3ccnc4c3c(/C=C3\Oc5ccc(NC(=O)Nc6cccnc6)cc5C3=O)cn4C)CC2)ccn1` , is the recorded IC50 below the cut-off of 600 nM?
RESULT: label 0

***
QUERY: For COCC1CN(C(=O)C2CCN(c3ccnc4c3c(/C=C3\Oc5ccc(NC(=O)Nc6cccnc6)cc5C3=O)cn4C)CC2)CCO1 (stereo not drawn) , is the recorded IC50 below the cut-off of 600 nM?
RESULT: label 0
